B1: Azoarcus group I ribozyme (parent)
chain: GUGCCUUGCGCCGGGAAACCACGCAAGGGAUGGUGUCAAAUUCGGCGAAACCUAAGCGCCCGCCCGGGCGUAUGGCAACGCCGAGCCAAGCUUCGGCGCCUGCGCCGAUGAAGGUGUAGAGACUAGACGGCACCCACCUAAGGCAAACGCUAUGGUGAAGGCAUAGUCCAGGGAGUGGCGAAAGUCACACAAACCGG

Variants of: B1
Assay: reverse-splicing fitness (ratio to wild type); higher = more active; in vitro selection; Mg2+ level not given
Quick rule: reverse-splicing fitness of at least 0.01 means yes, below that means no.

A111G A145G C169G
yes
C82U A111G A120U A145C C150U C169A U176G
no
C82U A111U A120C A145G C150U C169U U176C
yes
A111C A120U A145U C150A C169U
no
C82A A145U C150U C169A U176A
yes

Please indicate if the recorded reverse-splicing fitness for C82U A111G A120G C150G U176A meets or exceeds 0.01.
no

Same lookup for C82U A111C A145G C150U C169U U176C , please.
yes

Same lookup for A120U A145U C169U U176G , please.
yes
